Listed here are binders together with their documented Inhibition (%).
- Target Under Test: T1, Human ROR1-ECD-his (Acro Biosystems RO1-H522y) (human, UniProt Q01973 30-406)
- T1 construct: extracellular domain; bought protein; also called hROR1-ECD-his; hu-ROR1-ECD-his
- T1 sequence (Q01973 30-406): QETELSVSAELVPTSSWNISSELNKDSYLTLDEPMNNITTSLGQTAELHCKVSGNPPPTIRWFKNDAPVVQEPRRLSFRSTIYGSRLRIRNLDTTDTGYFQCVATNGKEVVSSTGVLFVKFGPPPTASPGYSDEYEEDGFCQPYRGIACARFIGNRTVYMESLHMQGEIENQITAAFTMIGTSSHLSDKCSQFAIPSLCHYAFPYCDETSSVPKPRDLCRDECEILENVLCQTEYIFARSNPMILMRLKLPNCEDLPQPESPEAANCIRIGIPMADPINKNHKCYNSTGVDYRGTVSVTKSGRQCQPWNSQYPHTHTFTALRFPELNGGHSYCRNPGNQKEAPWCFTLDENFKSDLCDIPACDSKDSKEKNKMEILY
- Assay Info: BLI in-tandem, row = 1st Ab; competitor (2nd Ab): PR007417
Return type: number; implicit unit %.

The examples below pair each entry with its known result.
Binder	Result Unit	Observed
PR000374 (antibody, human IgG1, kappa, V domains shown, positive control; also called Bench marker 1) VH: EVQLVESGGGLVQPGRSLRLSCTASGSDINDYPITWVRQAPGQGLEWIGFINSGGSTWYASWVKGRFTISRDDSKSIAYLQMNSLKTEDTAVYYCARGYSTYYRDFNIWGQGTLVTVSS VL: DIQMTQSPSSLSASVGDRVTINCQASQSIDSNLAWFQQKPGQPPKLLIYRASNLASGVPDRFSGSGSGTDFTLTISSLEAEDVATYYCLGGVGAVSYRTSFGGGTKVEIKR	%	-10.5
PR007424 (antibody, V domains shown, bivalent form (HCAb) variant of PR005340, no light chain) VH: EVQLVESGGGLVKPGGSLRLSCAASGFTFSDYYMSWIRQAPGKGLEWISYIDSSGRPLAYADSVKGRFTISRDNAKNSLYLQMNSLRAEDTAIYYCARDMPSSSSDWVSLQFDYWGQGTLVTVSS	%	111
PR005338 (antibody, human IgG1, V domains shown, HCAb (heavy chain-only, human IgG1 Fc), no light chain) VH: EVQLVESGGGLVKPGGSLRLSCAASGFTFSDYYMSWIRQAPGKGLEWISYISSSGTTIHYADSVKGRFTISRDNAKNSLYLQMNSLRTEDTAVYYCARDAPSSNSDWVSLQFDYWGQGTLVTVSS	%	108
PR007417 (antibody, V domains shown, bivalent form (HCAb) variant of PR005340, no light chain) VH: EVQLVESGGGLVKPGGSLRLSCAASGFTFSDFYMSWIRQAPGKGLEWISYISSSGSTRYYADSVKGRFTISRDNAKNSLYLQMNSLRAEDTAIYYCARDIPSSSSDWVDLQFDYWGQGTLVTVSS	%	113

Continue with the binder presented below.
Provide Inhibition (%) value for the following binder: PR005340 (antibody, human IgG1, V domains shown, HCAb (heavy chain-only, human IgG1 Fc), no light chain) VH: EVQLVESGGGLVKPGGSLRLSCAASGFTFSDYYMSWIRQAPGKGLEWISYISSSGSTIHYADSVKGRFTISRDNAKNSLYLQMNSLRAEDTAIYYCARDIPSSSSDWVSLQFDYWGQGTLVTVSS
109
